# System: SK-MEL-2 melanoma
# method_description: NCI tumour cell line growth inhibition, 48 h
observation_type: TGI

compound: NC(=S)NC/C=C/Cl
observation_type: TGI
test_result: > 100 µM
--
compound: Cc1ccc(N=C[N-]c2ccc(C)cc2)cc1.Cc1ccc(N=C[N-]c2ccc(C)cc2)cc1.O=C([O-])C(F)(F)F.O=C([O-])C(F)(F)F.[OH3+].[OH3+].[Rh+2].[Rh+2]
observation_type: TGI
test_result: 69.8 µM
--
compound: CC(C)(C)C1=C(Br)C(O)(C(C)(C)C)OP1(=O)c1ccccc1 (stereo unspecified)
observation_type: TGI
test_result: > 100 µM
--
compound: ClCc1ccccc1Cn1cnc2ncnc(Cl)c21
observation_type: TGI
test_result: 19.7 µM
--
compound: COc1cccc(C2c3cc4c(cc3OC(Nc3ccccc3)C2C)OCO4)c1O (stereo unspecified)
observation_type: TGI
test_result: 51.9 µM
--
compound: COc1ccccc1NC(=O)CC(=O)NN
observation_type: TGI
test_result: > 100 µM

###

The following molecules are listed with their measured TGI values.
# System: U251 CNS
# method_description: NCI tumour cell line growth inhibition, 48 h
observation_type: TGI

molecule: Cc1ccc(-c2nc(/C=N/Nc3cc(C)nc4ccc(Cl)cc34)c(C)o2)cc1
test_result: 3.39 µM

molecule: CC(=O)OCC1OC(n2c(C)c(C)c(C)c(C#N)c2=S)C(OC(C)=O)C(OC(C)=O)C1OC(C)=O (stereo unspecified)
test_result: > 100 µM

molecule: CCN(CC)CCCC(C)Nc1cc(-c2cccc(OC(F)(F)F)c2)nc2ccc(N3CCCC3)cc12 (stereo unspecified)
test_result: 21.9 µM

molecule: CCOC(=O)C1=C(O)c2ccc(C)cc2C(=O)C1=O
test_result: > 100 µM

molecule: O=C(Nc1ccccc1I(=O)=O)C1CCCCC1
test_result: > 100 µM

molecule: O=C(O)/C(Cc1ccnc2ccccc12)=N\O
test_result: > 100 µM

molecule: CS(=O)(=O)OCCCNCCCOS(C)(=O)=O
test_result: 5460 µM

molecule: CN1Cc2ccccc2/C=C\c2ccccc21
test_result: > 100 µM

molecule: ClCc1ccccc1Cn1cnc2ncnc(Cl)c21
test_result: 4.4 µM

molecule: COC(=O)Nc1nc2ccc(NC(=O)c3ccc(I)cc3)cc2[nH]1
test_result: > 100 µM

molecule: CSc1cnc2ccccc2c1Sc1c[nH]c2ccccc2c1=O
test_result: 23.8 µM

###

# Test system: NCI-H460 lung
# method_description: NCI tumour cell line growth inhibition, 48 h

compound: Cc1ncc(COP(=O)(O)O)c(/C=C2\SC(=S)NC2=O)c1O
TGI: > 100 µM
//
compound: S=C1Cc2c(-c3ccc(Br)cc3)cc(-c3ccccc3)nc2-c2ccccc2N1
TGI: 2.66 µM
//
compound: Cc1cc(-c2c(F)cc3c4nn([C@H]5CC[C@@H](N(C)C)CC5)c(=O)c-4cn(C4CC4)c3c2F)cc(C)n1
TGI: 0.273 µM
//
compound: C[C@H](C1CC2(C)OC2(C)C(=O)O1)[C@H]1CC[C@H]2[C@@H]3[C@@H]4O[C@@H]4[C@@]4(O)CC=CC(=O)[C@]4(C)[C@H]3CC[C@]12C (stereo partly specified)
TGI: > 50 µM
//
compound: COc1ccccc1NC(=O)C1=C(C)NC(C)=C(C(=O)Nc2ccccc2OC)C1/C=C/c1ccccc1
TGI: > 100 µM
//
compound: COc1ccc(-c2cncn2-c2cc(OC)c(OC)c(OC)c2)cc1
TGI: > 84.6 µM
//
compound: O=C(NCCCc1cn[nH]c1)c1ccc(-c2ccncc2)c(C#Cc2ccc(F)cc2)c1
TGI: 41.9 µM
//
compound: CCCCCCCCC#CCCCCCCCCCC[C@@H]1C(=O)O[C@H](C)[C@@H]1O (tested in a mixture with another compound)
TGI: 35.8 µM
//
compound: COc1cc(C2C3=C(COC3=O)N(CCO)c3cc4c(cc32)OCCO4)cc(OC)c1OC (stereo unspecified)
TGI: 1.68 µM
//
compound: O=C(O)CCNS(=O)(=O)c1ccc2ccccc2c1
TGI: > 100 µM
//
compound: CC(C)CCOC(=O)NC(Nc1ccc(F)cc1)(C(F)(F)F)C(F)(F)F
TGI: > 100 µM

###

# System: SNB-19 CNS
# method_description: NCI tumour cell line growth inhibition, 48 h
TGI reference
observation_type: TGI

compound: O=C(OCc1ccccc1)N1CCNCCNCCN(C(=O)OCc2ccccc2)CCNCC1
test_result: > 100 µM

compound: Clc1ccc(-c2c3ccc(=[N+]4CCCCC4)cc-3oc3cc(N4CCCCC4)ccc23)cc1
test_result: 0.313 µM

compound: O=C(CN(/C=C/C(=O)C(F)(F)F)c1ccc(Cl)cc1)c1ccc(Cl)c(Cl)c1
test_result: 33.6 µM

compound: C#C[C@@]1(O)[C@@H](CO)O[C@@H](n2cc(I)c3c(N)ncnc32)[C@@H]1O
test_result: > 50 µM

compound: COC(=O)c1c(-c2cccs2)oc(-c2cccs2)c1C(=O)OC
test_result: > 100 µM

compound: O=C(/C=C/C=C/c1ccccc1)c1ccco1
test_result: 31.9 µM

compound: Cc1ccc2nc(NC(=O)C(=O)C(C#N)c3ccc(Cl)cc3)sc2c1 (stereo unspecified)
test_result: > 50 µM

compound: Cc1ccc(NC(=O)C(=O)CC(=O)c2c(C)n([O-])c3ccccc3[n+]2=O)cc1C
test_result: > 100 µM

compound: COC1=CC(=O)N(C)C(O)C1(C#N)OC1OC(CO)C(O)C(O)C1O (stereo unspecified)
test_result: > 100 µM

compound: CCCCN(C)/N=N/c1nc[nH]c1C(N)=O
test_result: > 100 µM

compound: CC(=O)OCC1OC(n2c(C)c(C)c(C)c(C#N)c2=S)C(OC(C)=O)C(OC(C)=O)C1OC(C)=O (stereo unspecified)
test_result: > 100 µM

compound: O=c1[nH]c(=O)n(C2OC(CO)C(O)C2O)cc1OCCCc1ccccc1 (stereo unspecified)
test_result: > 100 µM

compound: Cc1ccc([N+](=O)[O-])c2c(NCCNC(=O)c3cc(C(=O)NCCNc4ccnc5c(C)ccc([N+](=O)[O-])c45)n(C)n3)ccnc12
test_result: > 100 µM

compound: CCCc1cc(=O)n2c(C(=O)Nc3ccc(F)cc3)c(C(=O)Nc3ccc(F)cc3)sc2n1
test_result: > 160 µM

compound: O=C(Nc1ccccc1I(=O)=O)C1CCCCC1
test_result: > 100 µM

compound: CC1=C(SC#N)S(=O)(=O)N(c2ccccc2)C(C)=C1SC#N
test_result: 76.5 µM

compound: COCCOc1cc(C)cc(/C=C(C)/C=C/C2=C(C)CCCC2(C)C)n1
test_result: > 100 µM

compound: CC1=C(C(=O)Nc2ccccc2)C(c2ccccc2Cl)C(C(=O)Nc2ccccc2)=C(C)N1
test_result: 92.7 µM

compound: Nc1nc2c(C(=O)NCc3cccs3)nnn2c2cccc(Cl)c12
test_result: > 100 µM

compound: Cc1c2cccc-2ccc2c3ccccc3n(C(=O)c3ccc(Cl)cc3)c12
test_result: > 100 µM

compound: CCCOC(=O)c1c(C)n(C)c2scc[n+]12
test_result: > 100 µM

###

Measured TGI values are reported for all entries that follow.
# Test system: NCI-H226 lung
# method_description: NCI tumour cell line growth inhibition, 48 h
observation_type: TGI

compound: CCCCCCCCC#CCCCCCCCCCC[C@@H]1C(=O)O[C@H](C)[C@@H]1O (tested in a mixture with another compound)
test_result: > 100 µM
//
compound: CCC(C)CC(C)CC(C)/C=C(\C)C1=C(C)CC(C)(O)O1 (centres undefined)
test_result: > 100 µM
//
compound: O=c1[nH]nc(Cc2ccc(Cl)cc2)n1/N=C/c1ccc([N+](=O)[O-])o1
test_result: 43.3 µM
//
compound: C#Cc1cccc(Nc2nc(Cl)nc3cc(NC(=O)CCl)ccc23)c1
test_result: 5.27 µM
//
compound: CN(C)CC1CC/C(=C\c2ccc3c(c2)OCO3)C1=O (centres undefined)
test_result: 50.6 µM
//
compound: C/C(CN1C(=O)c2ccccc2C1=O)=N\NS(=O)(=O)c1cccc(C(=O)O)c1
test_result: > 100 µM
//
compound: [N-]=[N+]=NCC(O)Cn1cnc2c(NC(=O)c3ccccc3)ncnc21 (centres undefined)
test_result: > 100 µM
//
compound: Cc1ccc([N+](=O)[O-])c2c(NCCNC(=O)c3cc(C(=O)NCCNc4ccnc5c(C)ccc([N+](=O)[O-])c45)n(C)n3)ccnc12
test_result: > 100 µM
//
compound: CCNc1cc2c3c(c1)CCN3CCC2
test_result: > 10 µM

###

Listed here: compounds with reported GI50 for MDA-MB-435.
observation_type: GI50

given_smiles: CS(=O)(=O)c1ccc(Nc2nc(N[C@H]3CCCC[C@H]3N)nc3cc[nH]c(=O)c23)cc1
test_result: 1300 nM
--
given_smiles: ClCc1ccccc1Cn1cnc2ncnc(Cl)c21
test_result: 1950 nM
--
given_smiles: COC(=O)c1c(-c2cccs2)oc(-c2cccs2)c1C(=O)OC
test_result: 26000 nM
--
given_smiles: Cc1cc(N(CCOS(C)(=O)=O)CCOS(C)(=O)=O)ccc1C(=O)O
test_result: > 100000 nM
--
given_smiles: CC(=O)N1CCN(CCNC(=O)n2cc(-c3ccncc3)c(-c3cc(O)cc(Cl)c3)n2)CC1
test_result: 2700 nM
